- target-entity: Tyrosine-protein kinase Lyn (Homo sapiens) (UniProt P07948)
- Sequence (P07948 2-512 limits assumed): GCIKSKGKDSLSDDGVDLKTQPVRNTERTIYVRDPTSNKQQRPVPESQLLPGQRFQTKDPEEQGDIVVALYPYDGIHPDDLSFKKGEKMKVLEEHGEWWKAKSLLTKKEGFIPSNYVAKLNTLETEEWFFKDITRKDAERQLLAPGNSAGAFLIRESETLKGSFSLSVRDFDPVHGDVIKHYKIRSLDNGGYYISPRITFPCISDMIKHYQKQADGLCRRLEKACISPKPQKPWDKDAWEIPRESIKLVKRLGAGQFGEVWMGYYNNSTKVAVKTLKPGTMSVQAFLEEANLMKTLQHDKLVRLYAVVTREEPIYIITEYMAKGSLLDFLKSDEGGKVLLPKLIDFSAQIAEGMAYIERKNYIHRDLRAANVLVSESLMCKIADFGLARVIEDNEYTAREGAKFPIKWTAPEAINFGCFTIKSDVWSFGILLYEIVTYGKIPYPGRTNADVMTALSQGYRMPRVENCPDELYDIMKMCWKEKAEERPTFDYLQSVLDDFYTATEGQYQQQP
- assay-summary: Binding affinity to Lyn assessed as increase of fluorescence after 60 mins relative to control
Starred links: 1 amine or outer side, 2 acyl side, 3 side chain; linkers in the order of their positions; H or OH if unused. Non-standard residues stand in square brackets, D forms with d. Residues, ends and D or L forms follow the SMILES beside them. X2 = CCN1C(=O)c2cccc3c(-n4cc(C[C@H](N[*:1])C(=O)[*:2])nn4)ccc(c23)C1=O; X5 = Cc1cc(=O)[nH]c2cc(-n3cc(C[C@H](N[*:1])C(=O)[*:2])nn3)ccc12
assay-metric: fold change (FC)
Give bare numbers.

molecule	fold change (FC)
CC[C@H](C)[C@H](NC(=O)[C@H](CCC(=O)O)NC(=O)[C@H](CCC(=O)O)NC(=O)[C@H](CCC(=O)O)NC(=O)[C@H](C)N)C(=O)N[C@@H](Cc1ccc(O)cc1)C(=O)NCC(=O)N[C@@H](CCC(=O)O)C(=O)N[C@@H](Cc1cn(-c2ccc3c4c(cccc24)C(=O)N(CC)C3=O)nn1)C(=O)N[C@@H](CCC(=O)O)C(=O)N[C@@H](C)C(=O)N[C@@H](CCCCN)C(=O)N[C@@H](CCCCN)C(=O)N[C@@H](CCCCN)C(=O)N[C@@H](CCCCN)C(N)=O (H-AEEEIYGE[X2]EAKKKK-NH2)	2.5

Recall and state the measured fold change (FC) for CC[C@H](C)[C@H](NC(=O)[C@H](CCC(=O)O)NC(=O)[C@H](CCC(=O)O)NC(=O)[C@H](CCC(=O)O)NC(=O)[C@H](C)N)C(=O)N[C@@H](Cc1ccc(O)cc1)C(=O)NCC(=O)N[C@@H](CCC(=O)O)C(=O)N[C@@H](Cc1cn(-c2ccc3c(C)cc(=O)[nH]c3c2)nn1)C(=O)N[C@@H](CCC(=O)O)C(=O)N[C@@H](C)C(=O)N[C@@H](CCCCN)C(=O)N[C@@H](CCCCN)C(=O)N[C@@H](CCCCN)C(=O)N[C@@H](CCCCN)C(N)=O (H-AEEEIYGE[X5]EAKKKK-NH2) . 0

All figures here come from ChEMBL document CHEMBL1641533.
